Value source: PubChem BioAssay (NCI)

tested on: OVCAR-5 ovarian; test: NCI-60 one-dose screen, 48 h (100 = growth as untreated, 0 = no growth, -100 = all killed); details: 10 µM unless noted
About 83,000 compounds went through this panel and 20% of them were active in at least one assay; those are over-represented in the sample as a whole.
ENDPOINT LABEL: growth (%)

{"columns": ["MOLECULE", "ENDPOINT LABEL", "VALUE UNIT", "VAL"],
 "data": [
  ["COc1ccc2nc(NC(=O)COc3cc(/C=C\\c4cc(OC)c(OC)c(OC)c4)ccc3OC)sc2c1", "growth", "%", 71.6],
  ["CC1=C(CCCNS(C)(=O)=O)C2=C(C)C3(CC3)[C@@](C)(O)C(=O)C2=C1", "growth", "%", 2.82],
  ["CC(=O)ONc1ccc([N+](=O)[O-])c(C(F)(F)F)c1", "growth", "%", 103],
  ["CC[C@H](C)[C@H](NC(=O)[C@H]1CCCCN1C)C(=O)N(C)[C@H](C[C@@H](OC(C)=O)c1nc(C(=O)NC23CC(C(=O)OC)(C2)C3)cs1)C(C)C", "growth", "%", 53.7],
  ["NC(=O)CNc1ccc([As]=[As]c2ccc(NCC(N)=O)cc2)cc1 (stereo not drawn)", "growth", "%", 74.6],
  ["O=C1N[C@@H]2[C@@H](O)[C@@H](O)[C@H](O)C[C@H]2c2cc3c(c(O)c21)OCO3", "growth", "%", -13.4],
  ["C#Cc1ccc2c(c1)C(c1ccccc1)=NCC(=O)N2C", "growth", "%", 85.5],
  ["CCCCCCCC(=O)OCC(=O)[C@]1(O)Cc2c(O)c3c(c(O)c2[C@@H](OC2CC(N)C(O)C(C)O2)C1)C(=O)c1c(OC)cccc1C3=O (stereo partly drawn)", "growth", "%", -73.9]
]}
